# assay.details: compound effects on lung adenocarcinoma cell viability – A549, calcein-AM fluorescence, 48 h, basal, profiling panel (AID 1162); note: test concentration not given here
# settings: higher = more signal
attribute.measured: z-score
// no unit string in output, number only

Reported z-score ( `[N-]=[N+]=Nc1ccccc1C[C@]1(C(=O)NCCN2CCOCC2)COC(c2ccc(OCCCO)cc2)=N1` ) = 1.84

`COCCOC(=O)N1C(=O)[C@@]2(c3cc(C#CC4(O)CCCCCC4)ccc31)[C@H](c1ccc(O)cc1)N1[C@H](c3ccccc3)[C@H](c3ccccc3)OC(=O)[C@H]1[C@@H]2C(=O)N1CCN(c2ncccn2)CC1` has a reported z-score of -0.98

Reported z-score ( `CCOC(=O)C[C@H]1[C@H](OC(=O)c2ccc(-c3ccccc3)cc2)[C@@H](NC(=O)CC(C)C)c2cc(OCCCO)ccc2N1C(=O)c1ccc2ccccc2n1` ) = 1.37

The compound listed as `COc1ccc(C#Cc2ccc3c(c2)[C@]2(C(=O)N3)[C@H](c3ccc(OCCO)cc3)N3[C@H](c4ccccc4)[C@H](c4ccccc4)OC(=O)[C@H]3[C@@H]2C(=O)NC[C@H](O)c2ccccc2)cc1` shows z-score equal to 0.357

Data point: `COc1ccc(CCNC(=O)[C@@]2(Cc3ccccc3I)c3ccccc3C(=O)N(C3CCCCC3)[C@H]2c2ccc(CO)cc2)cc1` ; z-score = 1

The measured z-score associated with CCCCC(CC)C(O)C1C=CC2C(=O)N(c3ccccc3)C(=O)C2N1Nc1ccccc1F (stereo unspecified) reads 0.389
